IC50, Beta-secretase 1 (Homo sapiens, UniProt P56817): measured values

# compound, system.name, IC50 / nM
measured = [
    ("NC1=N[C@@]2(CO1)c1cc(-c3cccnc3F)ccc1Oc1cnc(C3CCCOC3)cc12 (stereo not given in full)", "Beta-secretase 1 (Homo sapiens, UniProt P56817)", 11.3),
    ("NC1=N[C@@]2(CO1)c1cc(-c3cccnc3F)ccc1Oc1cnc(-c3ccccc3)cc12", "Beta-secretase 1 (Homo sapiens, UniProt P56817)", 1.4),
    ("Cc1cc(-c2cc3c(cn2)Oc2ccc(-c4cccnc4F)cc2[C@@]32COC(N)=N2)ccn1", "Beta-secretase 1 (Homo sapiens, UniProt P56817)", 2.4),
    ("NC1=N[C@@]2(CO1)c1cc(-c3cccnc3F)ccc1Oc1cnc(-c3ccccn3)cc12", "Beta-secretase 1 (Homo sapiens, UniProt P56817)", 3.8),
    ("NC1=N[C@@]2(CO1)c1cc(-c3cccnc3F)ccc1Oc1cnc(C3=CCOCC3)cc12", "Beta-secretase 1 (Homo sapiens, UniProt P56817)", 0.7),
    ("CC1(C)C=C(c2cc3c(cn2)Oc2ccc(-c4cccnc4F)cc2[C@@]32COC(N)=N2)CCO1", "Beta-secretase 1 (Homo sapiens, UniProt P56817)", 0.9),
    ("CC1(C)CN(c2cc3c(cn2)Oc2ccc(-c4cccnc4F)cc2[C@@]32COC(N)=N2)CCO1", "Beta-secretase 1 (Homo sapiens, UniProt P56817)", 4),
    ("NC1=N[C@@]2(CO1)c1cc(-c3cccnc3F)ccc1Oc1cnc(-c3ccncc3)cc12", "Beta-secretase 1 (Homo sapiens, UniProt P56817)", 2.5),
    ("NC1=N[C@@]2(CO1)c1cc(-c3cccnc3F)ccc1Oc1cnc(C3CCOCC3)cc12", "Beta-secretase 1 (Homo sapiens, UniProt P56817)", 7.1),
    ("NC1=N[C@@]2(CO1)c1cc(-c3cccnc3F)ccc1Oc1cnc(C3=CCCOC3)cc12", "Beta-secretase 1 (Homo sapiens, UniProt P56817)", 0.5),
]

====

- system.name: Beta-secretase 1 (Homo sapiens, UniProt P56817)
- Sequence (P56817 whole entry): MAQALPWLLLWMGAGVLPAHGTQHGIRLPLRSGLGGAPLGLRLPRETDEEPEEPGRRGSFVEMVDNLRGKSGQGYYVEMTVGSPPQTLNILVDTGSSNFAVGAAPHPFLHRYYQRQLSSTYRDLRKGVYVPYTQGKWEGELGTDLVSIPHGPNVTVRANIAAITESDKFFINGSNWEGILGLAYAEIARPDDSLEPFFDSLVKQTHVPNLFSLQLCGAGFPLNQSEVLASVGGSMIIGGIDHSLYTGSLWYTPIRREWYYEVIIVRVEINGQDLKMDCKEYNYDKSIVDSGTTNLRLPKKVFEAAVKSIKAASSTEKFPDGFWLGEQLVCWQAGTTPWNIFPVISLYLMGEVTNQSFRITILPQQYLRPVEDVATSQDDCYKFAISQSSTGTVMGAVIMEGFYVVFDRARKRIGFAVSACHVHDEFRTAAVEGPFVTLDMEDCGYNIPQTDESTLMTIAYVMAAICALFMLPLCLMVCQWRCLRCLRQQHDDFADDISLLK
The following compounds are shown together with reported IC50 values.

# compound, IC50 [nM]
measured = [
    ("Cc1cc(-c2cc3c(cn2)Oc2ccc(-c4cccnc4F)cc2[C@@]32COC(N)=N2)ccn1", 15),
    ("CC1(C)CN(c2cc3c(cn2)Oc2ccc(-c4cccnc4F)cc2[C@@]32COC(N)=N2)CCO1", 22),
    ("NC1=N[C@]2(CO1)c1cc(C3=CCOCC3)ccc1Oc1ccc(-c3cccnc3F)cc12", 18.5),
    ("NC1=N[C@@]2(CO1)c1cc(-c3cccnc3F)ccc1Oc1cnc(N3CCC(F)(F)C3)cc12", 4.1),
    ("NC1=N[C@@]2(CO1)c1cc(-c3cccnc3F)ccc1Oc1cnc(C3CCCOC3)cc12 (some centres undefined)", 123),
    ("NC1=N[C@@]2(CO1)c1cc(-c3cccnc3F)ccc1Oc1cnc(C3=CCOCC3)cc12", 4.2),
    ("NC1=N[C@@]2(CO1)c1cc(-c3cccnc3F)ccc1Oc1cnc(N3CCOCC3)cc12", 20.5),
    ("NC1=N[C@@]2(CO1)c1cc(-c3cccnc3F)ccc1Oc1cnc(-c3ccncc3)cc12", 16),
    ("CC1(C)C=C(c2cc3c(cn2)Oc2ccc(-c4cccnc4F)cc2[C@@]32COC(N)=N2)CCO1", 7.4),
    ("NC1=N[C@@]2(CO1)c1cc(-c3cccnc3F)ccc1Oc1cnc(-c3ccccn3)cc12", 26.6),
    ("NC1=N[C@@]2(CO1)c1cc(-c3cccnc3F)ccc1Oc1cnc(C3=CCCOC3)cc12", 7.9),
    ("NC1=N[C@@]2(CO1)c1cc(-c3cccnc3F)ccc1Oc1cnc(N3CCC(F)(F)CC3)cc12", 8.7),
    ("NC1=N[C@@]2(CO1)c1cc(-c3cccnc3F)ccc1Oc1cnc(C3CCOCC3)cc12", 49.5),
    ("NC1=N[C@@]2(CO1)c1cc(-c3cccnc3F)ccc1Oc1cnc(-c3ccccc3)cc12", 25.3),
]

====

- system.name: Cathepsin D (Homo sapiens, UniProt P07339)
- Sequence (P07339 65-162 limits assumed): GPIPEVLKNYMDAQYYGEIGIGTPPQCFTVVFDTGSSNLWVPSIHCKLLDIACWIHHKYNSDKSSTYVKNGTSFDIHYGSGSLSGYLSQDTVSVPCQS
- Sequence (P07339 169-412 limits assumed): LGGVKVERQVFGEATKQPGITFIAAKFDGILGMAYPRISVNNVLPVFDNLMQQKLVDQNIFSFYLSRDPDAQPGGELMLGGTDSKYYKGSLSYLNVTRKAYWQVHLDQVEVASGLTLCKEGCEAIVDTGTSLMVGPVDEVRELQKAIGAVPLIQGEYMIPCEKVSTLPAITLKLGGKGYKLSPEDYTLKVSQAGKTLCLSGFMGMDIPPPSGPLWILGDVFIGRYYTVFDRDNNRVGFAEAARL
measured.parameter: log10(IC50) (log10 of the value in µM)

# chemical.string, system.name, readout.value
records = [
    ("NC1=N[C@@]2(CO1)c1cc(-c3cccnc3F)ccc1Oc1cnc([C@@H]3CCCCO3)cc12", "Cathepsin D (Homo sapiens, UniProt P07339)", 1.06),
    ("NC1=N[C@@]2(CO1)c1cc(-c3cccnc3F)ccc1Oc1cnc(-c3ccccn3)cc12", "Cathepsin D (Homo sapiens, UniProt P07339)", 0.61),
    ("NC1=N[C@@]2(CO1)c1cc(-c3cccnc3F)ccc1Oc1cnc(N3CCC(F)(F)CC3)cc12", "Cathepsin D (Homo sapiens, UniProt P07339)", -0.85),
    ("NC1=N[C@@]2(CO1)c1cc(-c3cccnc3F)ccc1Oc1cnc(N3CCC(F)(F)C3)cc12", "Cathepsin D (Homo sapiens, UniProt P07339)", -0.36),
    ("NC1=N[C@@]2(CO1)c1cc(-c3cccnc3F)ccc1Oc1cnc(N3CCOCC3)cc12", "Cathepsin D (Homo sapiens, UniProt P07339)", -0.22),
    ("NC1=N[C@@]2(CO1)c1cc(-c3cccnc3F)ccc1Oc1cnc(C3=CCOCC3)cc12", "Cathepsin D (Homo sapiens, UniProt P07339)", -0.19),
    ("NC1=N[C@@]2(CO1)c1cc(-c3cccnc3F)ccc1Oc1cnc(N3CC[C@@H](F)C3)cc12", "Cathepsin D (Homo sapiens, UniProt P07339)", -0.17),
]

====

- Species on record: Rattus norvegicus
- condition.details: dose 10 mg/kg; route oral

# chemical.string, fEC50 [nM]
data = [
    ("NC1=N[C@@]2(CO1)c1cc(-c3cccnc3F)ccc1Oc1cnc(N3CCC(F)(F)CC3)cc12", 54),
    ("NC1=N[C@@]2(CO1)c1cc(-c3cccnc3F)ccc1Oc1cnc(-c3ccncc3)cc12", 745),
    ("Cc1cc(-c2cc3c(cn2)Oc2ccc(-c4cccnc4F)cc2[C@@]32COC(N)=N2)ccn1", 62),
    ("NC1=N[C@@]2(CO1)c1cc(-c3cccnc3F)ccc1Oc1cnc(N3CCC(F)(F)C3)cc12", 38),
    ("NC1=N[C@@]2(CO1)c1cc(-c3cccnc3F)ccc1Oc1cnc(C3=CCCOC3)cc12", 31),
    ("NC1=N[C@@]2(CO1)c1cc(-c3cccnc3F)ccc1Oc1cnc(C3CCOCC3)cc12", 659),
    ("CC1(C)C=C(c2cc3c(cn2)Oc2ccc(-c4cccnc4F)cc2[C@@]32COC(N)=N2)CCO1", 57),
    ("NC1=N[C@@]2(CO1)c1cc(-c3cccnc3F)ccc1Oc1cnc(C3=CCOCC3)cc12", 60),
]

Hello, the source for this data is ChEMBL document CHEMBL3393054, in case you need it.
